Origin of the recorded values: patent US20250122218A1

- experimental_system: CFTR in F508del/MF-HBE cells (Homo sapiens, UniProt P13569, DEL508-508)
- Construct: human bronchial epithelial (HBE) cells derived from CF subjects heterozygous for F508del and a minimal function CFTR mutation; endogenous in cells
- Sequence (P13569 with tags, fused parts or gaps DEL508-508): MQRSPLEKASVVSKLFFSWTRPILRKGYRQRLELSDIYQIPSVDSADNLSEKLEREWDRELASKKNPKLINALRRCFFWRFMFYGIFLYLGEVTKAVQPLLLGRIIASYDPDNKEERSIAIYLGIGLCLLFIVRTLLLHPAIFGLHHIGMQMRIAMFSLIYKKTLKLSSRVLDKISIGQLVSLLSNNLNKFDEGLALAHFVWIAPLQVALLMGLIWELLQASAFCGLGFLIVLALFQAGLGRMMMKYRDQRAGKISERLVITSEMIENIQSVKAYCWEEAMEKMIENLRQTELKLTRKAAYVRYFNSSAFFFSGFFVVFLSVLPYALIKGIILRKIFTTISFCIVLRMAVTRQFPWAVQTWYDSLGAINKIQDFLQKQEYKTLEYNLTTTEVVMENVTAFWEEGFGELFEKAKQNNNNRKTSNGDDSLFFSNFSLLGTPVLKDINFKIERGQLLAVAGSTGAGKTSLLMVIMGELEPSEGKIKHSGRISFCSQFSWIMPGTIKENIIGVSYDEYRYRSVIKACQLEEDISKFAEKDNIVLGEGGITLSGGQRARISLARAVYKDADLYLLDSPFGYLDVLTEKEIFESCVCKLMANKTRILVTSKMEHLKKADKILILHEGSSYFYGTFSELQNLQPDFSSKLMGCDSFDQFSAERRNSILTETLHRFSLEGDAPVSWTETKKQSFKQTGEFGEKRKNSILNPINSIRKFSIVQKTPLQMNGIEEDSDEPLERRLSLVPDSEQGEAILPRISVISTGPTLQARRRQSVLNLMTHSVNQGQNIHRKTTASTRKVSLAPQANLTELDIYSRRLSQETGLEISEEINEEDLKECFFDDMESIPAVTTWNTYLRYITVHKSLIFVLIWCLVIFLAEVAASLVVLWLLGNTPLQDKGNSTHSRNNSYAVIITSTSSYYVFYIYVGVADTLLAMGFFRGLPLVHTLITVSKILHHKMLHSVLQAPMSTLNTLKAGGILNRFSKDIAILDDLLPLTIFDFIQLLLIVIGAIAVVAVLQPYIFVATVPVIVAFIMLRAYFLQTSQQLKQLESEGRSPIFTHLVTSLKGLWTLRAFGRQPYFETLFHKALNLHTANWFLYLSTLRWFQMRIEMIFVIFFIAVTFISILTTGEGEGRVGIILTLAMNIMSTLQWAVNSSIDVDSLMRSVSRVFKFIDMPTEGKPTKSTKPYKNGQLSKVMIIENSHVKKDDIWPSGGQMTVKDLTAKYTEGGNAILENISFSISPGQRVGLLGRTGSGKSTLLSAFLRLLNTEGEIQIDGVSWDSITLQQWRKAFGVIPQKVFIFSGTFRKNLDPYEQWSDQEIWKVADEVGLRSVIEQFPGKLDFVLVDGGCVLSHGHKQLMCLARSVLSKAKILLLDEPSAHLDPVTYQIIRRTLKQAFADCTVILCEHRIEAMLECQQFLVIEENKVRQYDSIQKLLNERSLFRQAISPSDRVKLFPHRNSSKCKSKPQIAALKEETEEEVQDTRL
- experimental_protocol: Ussing chamber assay of CFTR-mediated short-circuit currents (identification of potentiator compounds)
- condition_context: potentiator incubated 18-24 hours at 37° C. in combination with 10 μM corrector, in the presence of 20% human serum, CFTR-mediated ISC
- Procedure: Ussing chamber experiments were performed using human bronchial epithelial (HBE) cells derived from CF subjects heterozygous for F508del and a minimal function CFTR mutation (F508del/MF-HBE) and cultured as previously described (Neuberger T, Burton B, Clark H, Van Goor F; Methods Mol. Biol. 2011:741:39-54). […] The activity of the CFTR potentiator compounds on the CFTR-mediated ISC was determined in Ussing chamber studies as described above. […]
Reported EC50 values for the following molecules.

// below: answered molecules
# molecule, EC50
data = [
    ("Nc1cc(C(F)(F)F)c2nc1-c1nnc(o1)[C@@](O)(C(F)(F)F)CCCCCN(Cc1ccc(F)c(C3CCC3)c1)C2=O", "< 500 nM"),
    ("Nc1cc(C(F)(F)F)c2nc1-c1nnc(o1)[C@@](O)(C(F)(F)F)CCCCCN(c1ccccn1)C2=O", "< 500 nM"),
    ("Cc1ccc(CN2CCCCC[C@](O)(C(F)(F)F)C3=NN=C(O3)c3nc(c(C(F)(F)F)cc3N)C2=O)cc1", "< 500 nM"),
    ("CC1CCCCCCC(O)(C(F)(F)F)C2=NN=C(O2)c2nc1c(C(F)(F)F)cc2N (single isomer, unassigned) [Compound 16]", "< 500 nM"),
    ("CC1(C)CCCCC[C@](O)(C(F)(F)F)C2=NN=C(O2)c2nc(c(C(F)(F)F)cc2N)C1=O", "< 500 nM"),
    ("CC(C)(C)c1ccc(C2(N3CCCCCC(O)(C(F)(F)F)C4=NN=C(O4)c4nc(c(C(F)(F)F)cc4N)C3=O)CC2)cc1 (single isomer, unassigned) [Compound 228]", "< 500 nM"),
]

Request: EC50, test system CFTR in F508del/MF-HBE cells (Homo sapiens, UniProt P13569, DEL508-508), entry `CC(C)(C)N1CCCCC[C@](O)(C(F)(F)F)C2=NN=C(O2)c2nc(c(C(F)(F)F)cc2N)C1=O`
< 500 nM

Request: EC50, test system CFTR in F508del/MF-HBE cells (Homo sapiens, UniProt P13569, DEL508-508), entry Nc1cc(C(F)(F)F)c2nc1-c1nnc(o1)C(O)(C(F)(F)F)CCCCN(Cc1ccccc1)C(=O)C2 (centres unmarked)
< 500 nM

====

- experimental_system: CFTR in F508del/MF-HBE cells (Homo sapiens, UniProt P13569, DEL508-508)
- Construct: human bronchial epithelial (HBE) cells derived from CF subjects heterozygous for F508del and a minimal function CFTR mutation; endogenous in cells
- experimental_protocol: Ussing chamber assay of CFTR-mediated short-circuit currents (identification of potentiator compounds)
- condition_context: potentiator incubated 18-24 hours at 37° C. in combination with 10 μM corrector, in the presence of 20% human serum, CFTR-mediated ISC
pEC50: −log10 of the molar value.
Reported pEC50 values for the following compounds.

# compound, result
rows = [
    ("Nc1cc(C(F)(F)F)c2nc1-c1nnc(o1)[C@@](O)(C(F)(F)F)CCCCCN(C1CC3(C1)CC(F)(F)C3)C2=O", "> 6.30"),
]

Using the record for Nc1cc(C(F)(F)F)c2nc1-c1nnc(o1)C(O)(C(F)(F)F)CCCCCN(C(=O)C1CCC1)C2 (single isomer, unassigned) [Compound 22] , report its pEC50.
> 6.30

Using the record for Nc1cc(C(F)(F)F)c2nc1-c1nnc(o1)[C@@](O)(C(F)(F)F)CCCCCN(CC1CCCOC1)C2=O (mixture of isomers) , report its pEC50.
> 6.30

Using the record for `Nc1cc(C(F)(F)F)c2nc1-c1nnc(o1)[C@@](O)(C(F)(F)F)CCCCCN(C1CCCCC1)C2=O` , report its pEC50.
> 6.30

Using the record for `Nc1cc(C(F)(F)F)c2nc1-c1nnc(o1)[C@@](O)(C(F)(F)F)CCCCCN(Cc1cc[nH]n1)C2=O` , report its pEC50.
< 6.00

Using the record for `COc1ccc(CN2CCCCC[C@](O)(C(F)(F)F)C3=NN=C(O3)c3nc(c(C(F)(F)F)cc3N)C2=O)c(F)c1` , report its pEC50.
> 6.30
